Biological target: PDE II
Experiment: Phosphodiesterase inhibition in vitro, PDE II (cGMP-stimulatable)
Settings: 3H-cAMP substrate, 10^-6 mol/l cGMP added
Procedure: The c-GMP-stimulatable PDE II, the c-GMP-inhibitable PDE III and the cAMP-specific PDE IV were isolated either from porcine or bovine heart myocard. […] The enzyme activity is determined in a test batch of 100 μl in 20 mM Tris/HCl buffer pH 7.5 which comprises 5 mM MgCl2, 0.1 mg/ml bovine serum albumin and either 800 Bq ^3 HcAMP or ^3 HcGMP. […] 100 μl of the reaction batch are separated by HPLC and the cleavage products are quantified on-line using a flow scintillation counter. […]
pIC50: −log10 of the molar value.
quantity: pIC50

Below are worked cases with known answers.
[in] What measured pIC50 is associated with Cc1nn(C(CCCc2ccccc2)C(C)O)c2nc(Cc3ccccc3)[nH]c(=O)c12 (single isomer, unassigned) [Example 33] on PDE II?
[out] 6.30

[in] Which pIC50 is reported with PDE II for this entry: Cc1nn(C(CCCc2ccccc2)C(C)O)c2nc(Cc3ccccc3)[nH]c(=O)c12 (single isomer, unassigned) [Example 32] ?
[out] 6.52

[in] GET /values?readout=pIC50&system=PDE II&item= CCc1nn(C(C)CCCc2ccccc2)c2nc(Cc3ccc(Br)cc3)[nH]c(=O)c12 (centres unmarked)
[out] 7.00

A. CC(CCCc1ccccc1)n1ncc2c(=O)[nH]c(Cc3ccc(Cl)c(Cl)c3)nc21 (centres unmarked)
B. COc1ccc(Cc2nc3c(cnn3C(C)CCCc3ccccc3)c(=O)[nH]2)cc1OC (centres unmarked)
[in] Between item A and item B , which reported pIC50 is smaller? Choose, then provide that item's label.
[out] A
(A: 6.30, B: 6.52)

---

molecular target: PDE I; test: Phosphodiesterase inhibition in vitro, PDE I (Ca-calmodulin-stimulatable); conditions: Ca/calmodulin added, substrate 10^-6 mol/l
quantity: IC50 (nM)

[in] Which IC50 value is on record for CC(CCCc1ccccc1)n1ncc2c(=O)[nH]c(Cc3ccc(Cl)c(Cl)c3)nc21 (centres unmarked) [Example 10] ?
[out] 300

[in] What value of measured IC50 is listed for Cc1nn(C(CCCc2ccccc2)C(C)O)c2nc(Cc3ccccc3)[nH]c(=O)c12 (single isomer, unassigned) [Example 32] ?
[out] 500

A. Cc1nn(C(CCCc2ccccc2)C(C)O)c2nc(Cc3ccccc3)[nH]c(=O)c12 (single isomer, unassigned) [Example 33]
B. COc1ccc(Cc2nc3c(cnn3C(C)CCCc3ccccc3)c(=O)[nH]2)cc1OC (centres unmarked) [Example 9]
[in] API: POST /compare with A and B ; response names the item with higher IC50. Let me know the label of the one you choose.
[out] A

---

target: PDE V; test: Phosphodiesterase inhibition in vitro, PDE V (cGMP-specific); conditions: 3H-cGMP substrate
pIC50: −log10 of the molar value.
quantity: pIC50

[in] Given the molecule CC(CCCc1ccccc1)n1ncc2c(=O)[nH]c(Cc3ccc(Cl)c(Cl)c3)nc21 (centres unmarked) , what is its reported pIC50?
[out] 7.30

[in] GET /values?readout=pIC50&item= Cc1nn(C(CCCc2ccccc2)C(C)O)c2nc(Cc3ccccc3)[nH]c(=O)c12 (single isomer, unassigned) [Example 32]
[out] 6.52

[in] pIC50 for CCc1nn(C(C)CCCc2ccccc2)c2nc(Cc3ccc(Br)cc3)[nH]c(=O)c12 (centres unmarked) ?
[out] 7.30

1. COc1ccc(Cc2nc3c(cnn3C(C)CCCc3ccccc3)c(=O)[nH]2)cc1OC (centres unmarked)
2. Cc1nn(C(CCCc2ccccc2)C(C)O)c2nc(Cc3ccccc3)[nH]c(=O)c12 (single isomer, unassigned) [Example 33]
[in] Could you please tell me which of these two has the higher pIC50: 1 or 2 ? State your choice using its label.
[out] 1
